Assay comment: inhibitors of E-selectin induction by TNFa, primary screen, imaging, HUVEC, immunofluorescence, MLSMR starter and 10KST1 sets (AID 487);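 also: 100% = median nuclei count of all wells on the same plate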
Condition context: HUVEC TNFalpha-induced E-selectin immunofluorescence imaging, at 2 µM; measured here: cell number, toxicity
Outcome measure: nuclei count (%)
Write the answer as a number in %, unit excluded.

Solved entries:
- CCCCN(CCCC)CCCOC(=O)c1ccc(N)cc1: 130
- CCCCNc1cc(C(=O)O)cc(S(N)(=O)=O)c1Oc1ccccc1: 140
- COc1ccc(/C=C(/C#N)c2cccnc2)cc1OC: 112

Item `CC(=O)Nc1ccc(Oc2ccc3nc(C)[nH]c3c2)cc1` has what recorded nuclei count?
133

Item COc1ccccc1C(=O)N1CCCC1(C#N)c1ccccc1 (stereo unspecified) has what recorded nuclei count?
121

Item O=C(C1=C(O)C(=O)N(CCN2CCOCC2)C1c1cccnc1)c1cc2ccccc2o1 (stereo unspecified) has what recorded nuclei count?
168
